- Measurement protocol: M. tuberculosis growth inhibition, HTS (AID 449762);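 note: bacterial growth assessed after seven days of incubation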
- Condition details: M. tuberculosis H37Rv growth inhibition, 7H9 media; at 25 µM; hits give high values
The whole screen tested about 330,000 compounds, of which about 1,900 (0.58%) were called active. Another 4% or so got no clear call; they are omitted. These entries were drawn from the full list. Results with a measured potency or affinity are listed apart.
# label = YES if inhibition >= 20% else NO

[[record]]
compound = "CC(C)(C)C(=O)Nc1ccc(N2CCN(c3ccc(C(F)(F)F)cn3)CC2)nc1"
class_assignment = "NO"

[[record]]
compound = "Cc1ccc([C@@H]2CC=C(C(=O)O)[C@H](c3ccc(F)cc3)N2S(=O)(=O)c2ccccc2C)cc1"
class_assignment = "NO"

[[record]]
compound = "CC(C)NC(=O)COC(=O)c1cc(Br)ccc1Cl"
class_assignment = "YES"


Does CCCCc1nc2cc(C(=O)N3CCCCC3CCNC(C)=O)ccc2o1 (stereo unspecified) have a reported inhibition of at least 20%? NO

For this compound, is measured inhibition 20% or higher? CCC(NC(=O)c1cc(COc2cncc(Cl)c2)on1)c1ccc(C)cc1 (stereo unspecified) YES

Form field: inhibition at least 20%? Entry: "CCCn1c(N2CCN(C(=O)Nc3ccc(Cl)cc3)CC2)nc2ccccc21" NO

---

Measured inhibition, listed per entry for reference.
- Measurement protocol: M. tuberculosis growth inhibition, HTS (AID 449762);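 note: bacterial growth assessed after seven days of incubation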
- Condition details: M. tuberculosis H37Rv growth inhibition, 7H9 media; at 25 µM; hits give high values
In all, about 330,000 compounds went through this assay and about 1,900 (0.58%) were called active. About 4% were inconclusive and are not listed. Not all results are given here. Entries with a potency or affinity are not part of this list.
Numeric answer only, unit % assumed.

[[record]]
compound = "COc1ccc(-n2c(O)c(/C=C3\\C=Nc4ccc(Br)cc43)c(=O)[nH]c2=O)c(OC)c1"
recorded_result = -3.48

[[record]]
compound = "Cc1cc(=O)[nH]c(N/N=C/c2c(C)nn(-c3ccc(F)cc3)c2Cl)n1"
recorded_result = 0.52

[[record]]
compound = "O=C(OCc1ccccc1Cl)C1CC(=O)N(Cc2ccco2)C1 (stereo not drawn)"
recorded_result = 5.47

[[record]]
compound = "O=C(O)c1cc(Cl)nc2ccccc12"
recorded_result = 2.9


May I ask what inhibition has been recorded for "CCOC(=O)c1nc2sc3c(c2c(=O)[nH]1)CCCC3" ? 2.32

Tell me the measured inhibition of "CNc1nc(NCc2ccccc2)c2ccccc2n1" , please. 16.5

# input compound: CC1CCCC(NC(=O)NC(=O)COC(=O)c2ccc(O)cc2O)C1C (stereo not drawn) ; wanted: its inhibition 0.995

Entry under review: "CCCc1cc(=O)n2[nH]cnc2n1" . Reported inhibition? -4.95

Using the record for CCCn1c(C(C)Nc2nc(-c3ccc(C)cc3)cs2)nc2cc(Cl)c(N3CCCCC3)cc21 (stereo not drawn) , report its inhibition. 44.2

What does the data say about its inhibition? Entry: "O=c1cc(-c2ccccc2O)nc(-c2ccccc2)[nH]1" 15.5

---

- Measurement protocol: M. tuberculosis growth inhibition, HTS (AID 449762);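 note: bacterial growth assessed after seven days of incubation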
- Condition details: M. tuberculosis H37Rv growth inhibition, 7H9 media; at 25 µM; hits give high values
In all, about 330,000 compounds went through this assay and about 1,900 (0.58%) were called active. Inconclusive results (about 4%) are left out. The list is a sample of the results. Measured potencies and affinities stand elsewhere.
Overview of reported inhibition across a group of compounds:
Lab book: enter the figure in %, no units written.

[[record]]
compound = "FC(F)(F)c1cc(CCN2C(=S)NC[C@@H]2CC2CCCCC2)cc(C(F)(F)F)c1"
reported_property = "inhibition"
recorded_result = -2.31

[[record]]
compound = "CCCCN(CC)C(=O)CSc1nc2ccccc2c(=O)n1CC1COc2ccccc2O1 (stereo unspecified)"
reported_property = "inhibition"
recorded_result = 15

[[record]]
compound = "Cc1ccc(O)c(C=Nc2cc(C)ccc2O)c1"
reported_property = "inhibition"
recorded_result = -4.69

[[record]]
compound = "CCC[N+](CC#Cc1ccccc1)(CCC)CC(=O)OC"
reported_property = "inhibition"
recorded_result = 0.57

[[record]]
compound = "O=C(C1CCCN(c2ncnc3c2nc2n3CCCCC2)C1)N1CCN(c2ccccc2)CC1 (stereo unspecified)"
reported_property = "inhibition"
recorded_result = 6.98


Form field: reported inhibition of "CC(C)Cc1nn2c(=O)cc(CSCC(=O)Nc3ccccc3F)nc2s1" -6.22

Given the entry "O=C(NCc1ccccc1F)c1cc(=O)[nH]c2ccccc12" , report its measured inhibition. 1.18

What value of inhibition has been recorded for this entry: "CCC(O)(CC)C(=O)NN(C(=O)CCl)c1ccccc1" 64.9

Name the recorded inhibition for "Cc1cccc(NC(=O)CNC(=O)c2sc3ccccc3c2Cl)n1" . -2.76

I would be grateful if you could share the reported inhibition for "Cc1cc(C)c(C(=O)CC(=O)c2ccccc2Cl)c(O)c1" . 6.33

For the compound shown here, "Cc1nnc(SCCC(=O)Nc2ccc(F)cc2)s1" , give the reported inhibition. 58.3
